Provide the recorded IC50 for the entries that follow.
- Target: IDH2 R140Q (Homo sapiens, UniProt P48735, R140Q)
- Sequence (P48735 40-452 R140Q): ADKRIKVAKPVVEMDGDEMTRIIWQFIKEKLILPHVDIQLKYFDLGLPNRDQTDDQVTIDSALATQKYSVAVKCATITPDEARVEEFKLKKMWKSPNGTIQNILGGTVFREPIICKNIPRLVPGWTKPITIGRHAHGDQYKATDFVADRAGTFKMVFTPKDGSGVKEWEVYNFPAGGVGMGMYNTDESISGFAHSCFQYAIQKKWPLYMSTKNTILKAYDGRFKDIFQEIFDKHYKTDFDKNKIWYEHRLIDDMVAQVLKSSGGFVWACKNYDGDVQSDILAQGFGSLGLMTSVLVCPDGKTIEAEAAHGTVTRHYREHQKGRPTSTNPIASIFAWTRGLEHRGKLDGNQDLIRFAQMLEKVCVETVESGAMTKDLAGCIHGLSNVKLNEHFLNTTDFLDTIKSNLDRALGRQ
- Method summary: IDH2 R140Q enzymatic assay (cofactor depletion, similar format)
- Format: biochemical
- Test settings: read-out: Enz R140Q

// worked examples, IC50 included
Compound | Target | IC50
COCC(C)Nc1nc(Nc2ccncc2)nc(-c2ccccc2)n1 (centres unmarked) | IDH2 R140Q (Homo sapiens, UniProt P48735, R140Q) | 0.1 to 1 µM
Cn1cc(Nc2nc(Nc3ccnc(C(F)(F)F)c3)nc(-c3cccc(C(F)(F)F)n3)n2)cn1 | IDH2 R140Q (Homo sapiens, UniProt P48735, R140Q) | 0.1 to 1 µM
COC(C)CNc1nc(Nc2ccncc2)nc(-c2ccccc2)n1 (centres unmarked) | IDH2 R140Q (Homo sapiens, UniProt P48735, R140Q) | > 10 µM
Fc1cncc(Nc2nc(NC3CCC3)nc(-c3ccccn3)n2)c1 | IDH2 R140Q (Homo sapiens, UniProt P48735, R140Q) | 0.1 to 1 µM
CCC(C)CNc1nc(Nc2ccncc2)nc(-c2ccccc2)n1 (centres unmarked) | IDH2 R140Q (Homo sapiens, UniProt P48735, R140Q) | < 0.1 µM

Please report IC50 for every entry that follows.
1. CC(F)(F)c1cccc(-c2nc(NCC3CC3)nc(Nc3cc(Cl)cc(S(C)(=O)=O)c3)n2)n1
2. CC(C)Nc1nc(Nc2ccnc(C(C)(F)F)c2)nc(-c2cccc(N)n2)n1
3. CC(C)(C)Nc1nc(Nc2ccnc(C(F)(F)F)c2)nc(-c2cccc(N)n2)n1
4. CC(C)Nc1nc(Nc2cccc(C#N)c2)nc(-c2ccccc2)n1
5. CC(C)Nc1nc(Nc2ccc(F)nc2)nc(-c2cccc(N)n2)n1
6. CC1CC1Nc1nc(Nc2ccncc2)nc(-c2ccccc2)n1 (centres unmarked)
7. O=C(Nc1nc(Nc2ccccc2)nc(-c2ccccc2)n1)c1ccn[nH]1

["0.1 to 1 µM", "0.1 to 1 µM", "0.1 to 1 µM", "< 0.1 µM", "0.1 to 1 µM", "< 0.1 µM", "0.1 to 1 µM"]

* * *

Provide the recorded pIC50 for the entries that follow.
- Test system: U87MG pLVX-IDH2 R140Q-neo cells
- Method summary: U87MG pLVX-IDH2 R140Q-neo cell based assay, 2-HG in media by LC-MS at 48 hours
- Test settings: Homo sapiens, U-87 MG
pIC50: −log10 of the molar value.

// worked examples, pIC50 included
Compound structure | pIC50
CC(C)Nc1nc(Nc2cncc(F)c2)nc(-c2cccc(N)n2)n1 | > 7.00
CC(C)Nc1nc(Nc2cccc(S(C)(=O)=O)c2)nc(-c2cccc(C(C)(F)F)n2)n1 | > 7.00
CC(C)OCC(=O)Nc1nc(Nc2ccccc2)nc(-c2ccccc2)n1 | 5.00 to 6.00
FC1(F)CC(Nc2nc(Nc3ccncc3)nc(-c3ccccc3)n2)C1 | > 7.00
CC(C)Nc1nc(Nc2ccccc2Cl)nc(-c2ccccc2)n1 | 5.00 to 6.00

Please report pIC50 for every entry that follows.
1. CCC(=O)Nc1nc(Nc2ccccc2)nc(-c2ccccc2)n1
2. Fc1cc(Nc2nc(NC3COC3)nc(-c3cccc(Cl)n3)n2)ccn1
3. Fc1ccccc1-c1nc(Nc2cncc(C(F)(F)F)c2)nc(NC2COC2)n1
4. Fc1cc(F)cc(Nc2nc(NCC3CC3)nc(-c3cccc(C(F)(F)F)n3)n2)c1
5. O=C(Nc1nc(Nc2ccccc2)nc(-c2ccccc2)n1)C1CC1
6. CC(C)(C)Nc1nc(Nc2ccnc(C(F)(F)F)c2)nc(-c2cccc(N)n2)n1
7. CC(C)Nc1nc(Nc2cc(F)cc(F)c2)nc(-c2nc(F)ccc2F)n1

["6.00 to 7.00", "> 7.00", "> 7.00", "> 7.00", "> 7.00", "> 7.00", "> 7.00"]

Please report pIC50 for every entry that follows.
1. CC(C)Nc1nc(Nc2ccccc2)nc(-c2ncccc2Cl)n1
2. CC(C)Nc1nc(Nc2ccnc(C3CC3)c2)nc(-c2cccc(C(F)(F)F)n2)n1
3. CC(C)Nc1nc(Nc2cccc(C#N)c2)nc(-c2ccccn2)n1
4. CC(C)COC(=O)Nc1nc(Nc2ccccc2)nc(-c2ccccc2)n1
5. CC(C)Nc1nc(Nc2ccnc(C3(C#N)CC3)c2)nc(-c2cccc(C(F)(F)F)n2)n1
6. CC(C)Nc1nc(Nc2cc(Cl)cc(S(C)(=O)=O)c2)nc(-c2cccc(C(F)(F)F)n2)n1

1. 6.00 to 7.00
2. > 7.00
3. > 7.00
4. > 7.00
5. > 7.00
6. > 7.00
